The measured values listed here are drawn from patent US11453660B2.

This listing pairs compounds with measured pIC50.
Target: Human Glucocorticoid Receptor (Homo sapiens, UniProt P04150)
Construct: endogenous in cells
Sequence (P04150 whole entry): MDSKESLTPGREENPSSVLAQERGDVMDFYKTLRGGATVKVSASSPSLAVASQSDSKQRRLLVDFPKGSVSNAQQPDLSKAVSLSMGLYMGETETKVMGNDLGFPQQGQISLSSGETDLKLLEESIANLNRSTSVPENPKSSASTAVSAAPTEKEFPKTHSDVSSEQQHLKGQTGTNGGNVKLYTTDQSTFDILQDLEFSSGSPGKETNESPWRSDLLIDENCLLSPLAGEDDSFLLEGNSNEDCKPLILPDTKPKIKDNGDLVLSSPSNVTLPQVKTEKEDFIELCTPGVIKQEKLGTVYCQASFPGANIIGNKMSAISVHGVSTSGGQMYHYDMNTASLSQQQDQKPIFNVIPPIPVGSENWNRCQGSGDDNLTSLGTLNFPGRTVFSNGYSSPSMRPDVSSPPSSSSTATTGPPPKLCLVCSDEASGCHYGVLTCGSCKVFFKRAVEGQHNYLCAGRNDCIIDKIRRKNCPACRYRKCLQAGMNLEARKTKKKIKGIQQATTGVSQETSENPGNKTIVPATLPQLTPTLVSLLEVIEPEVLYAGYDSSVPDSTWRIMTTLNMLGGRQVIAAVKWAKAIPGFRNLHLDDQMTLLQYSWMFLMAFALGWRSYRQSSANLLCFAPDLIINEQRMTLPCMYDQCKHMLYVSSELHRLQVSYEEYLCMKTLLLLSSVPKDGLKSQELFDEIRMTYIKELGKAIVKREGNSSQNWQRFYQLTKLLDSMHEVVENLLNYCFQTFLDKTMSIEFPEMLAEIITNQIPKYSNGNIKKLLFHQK
Test: Competition Binding in IM-9 Human Glucocorticoid Receptor (GR IM-9)
Conditions: cytosol from IM-9 cell line, 1.5 nM [3H]-Dexamethasone, 4° C. for 6 hours
pIC50: −log10 of the molar value.

{"compound": "CC(=O)C1=C(C)NC(C)=C(C(=O)OCC2CCOCC2)C1c1csc2ccc(F)cc12 (stereo not shown)", "pIC50": "6.00 to 7.00"}
{"compound": "CC1=C(C#N)C(c2csc3c(C#N)cccc23)C(C(=O)OCc2ccc(F)cc2)=C(N)N1 (stereo not shown)", "pIC50": "> 7.00"}
{"compound": "CC(=O)C1=C(C)NC(C)=C(C(=O)OCc2ccccc2)C1c1csc2ccc(F)cc12 (stereo not shown)", "pIC50": "6.00 to 7.00"}
{"compound": "CC(=O)C1=C(C)NC(C)=C(C(=O)OC(C)(C)c2ccccc2)C1c1csc2ncccc12 (stereo not shown)", "pIC50": "> 7.00"}
